# Tested on: primary human monocytes on TNF-alpha-activated HUVECs
# Protocol: Shear flow assay: monocyte adhesion and transmigration on TNFα-activated HUVECs
# Type: cell-based
# Condition details: 30 μM; monocytes on TNF-activated HUVECs under flow 0.05 Pa
Property label: Level of Transmigration Blockage (%)

# Record smiles, Unit spec, Experimental value
data = [
    ("COC(=O)c1ccc(COc2c(C)cc(C=C3C(=O)NC(=O)NC3=O)cc2C)cc1", "%", 75),
    ("COC(=O)c1cccc(COc2cccc(C=C3C(=O)NC(=O)NC3=O)c2)c1", "%", 98),
    ("O=C1NC(=O)C(=Cc2ccccc2OCc2cccc(C(=O)O)c2)C(=O)N1", "%", 78),
    ("O=C1NC(=O)C(=Cc2c3ccccc3cc3ccccc23)C(=O)N1", "%", 92),
    ("COC(=O)c1ccc(COc2cccc(C=C3C(=O)NC(=O)NC3=O)c2)cc1", "%", 81),
    ("COC(=O)c1ccc(COc2c(C=C3C(=O)NC(=O)NC3=O)cccc2C(C)(C)C)cc1", "%", 100),
]
